test system: Larvae of Mosquito (Culex pipiens); test: Insecticidal activity on larvae of mosquito (Experimental Example 2); format: in vivo; settings: 24 h, read-out: LC50 (50% lethal concentration)
LC50 values for the compounds below.
State the answer as a number, implicitly in mg/L.

>>> df
                                   compound  recorded_measurement
0  Cc1ccc(C(C)C(=O)OCc2cccc(Oc3ccccc3)c2)cc1 (stereo not shown) [compound 183]                0.0885
1  Cc1cccc(C(C(=O)OCc2coc(Cc3ccccc3)c2)C(C)C)c1 (stereo not shown) [compound 105]                0.0105
2  CC(C)C(C(=O)OCc1cccc(Oc2ccccc2)c1)c1ccc(Cl)cc1 (stereo not shown) [compound 206]                0.0032
3  CCC(C(=O)OCc1coc(Cc2ccccc2)c1)c1ccc(Cl)cc1 (stereo not shown) [compound 184]                0.0078
4  C=C(C)C(C(=O)OCc1cccc(Oc2ccccc2)c1)c1ccc(Br)cc1 (stereo not shown) [compound 111]                0.0025
5  CCc1ccc(C(C(=O)OCc2coc(Cc3ccccc3)c2)C(C)C)cc1 (stereo not shown) [compound 214]                0.0127

Now look at this entry.
// field: LC50; key: Cc1ccc(C(C)C(=O)OCc2coc(Cc3ccccc3)c2)cc1 (stereo not shown) [compound 181] ; value = 0.082

====

Tested on: Larvae of Mosquito (Culex pipiens)
Experiment: Insecticidal activity on larvae of mosquito (Experimental Example 2)
Format: in vivo
Settings: 24 h, read-out: LC50 (50% lethal concentration)
Method: An emulsifiable concentrate was prepared by blending each of the compounds (1) to (300) of the present invention, xylol and Sorpol SM-200 (trade name; manufactured by Toho Chemical Co., Ltd.) in a proportion of 25%, 50% and 25% (by weight), respectively. […]
Entries and their LC50 values follow.
Quick reminder: number only, in ng/mL, skip the unit.

Study these solved cases before continuing.
                                   molecule                        assay_system  recorded_measurement
0  CCc1ccc(C(C(=O)OCc2cccc(Oc3ccccc3)c2)C(C)C)cc1 (stereo not drawn) [compound 215]  Larvae of Mosquito (Culex pipiens)                  13.2
1  CCC(C(=O)OCc1cccc(Oc2ccccc2)c1)c1ccc(Cl)cc1 (stereo not drawn) [compound 177]  Larvae of Mosquito (Culex pipiens)                   7.4
2  Cc1ccc(C(C(=O)OCc2coc(Cc3ccccc3)c2)C(C)C)cc1 (stereo not drawn) [compound 103]  Larvae of Mosquito (Culex pipiens)                   9.2
3  CCC(C(=O)OCc1cccc(Oc2ccccc2)c1)c1ccccc1 (stereo not drawn) [compound 2, 3'-Phenoxybenzyl-α-ethylphenylacetate]  Larvae of Mosquito (Culex pipiens)                   3.4
4  C=C(C)C(C(=O)OCc1cccc(Oc2ccccc2)c1)c1ccc(Cl)cc1 (stereo not drawn) [compound 119]  Larvae of Mosquito (Culex pipiens)                   4.4
5  CCC(C(=O)OCc1coc(Cc2ccccc2)c1)c1ccc(C)cc1 (stereo not drawn) [compound 102]  Larvae of Mosquito (Culex pipiens)                   9.5

Sure, the documented LC50 for CCC(C(=O)OC(C#N)c1cccc(Oc2ccccc2)c1)c1ccccc1 (stereo not drawn) [compound 14] is 2.6

In plain terms, CSc1ccc(C(C(=O)OCc2cccc(Oc3ccccc3)c2)C(C)C)cc1 (stereo not drawn) [compound 298] has a documented LC50 of 9.7

Input C=CCC1=C(C)C(OC(=O)C(CC)c2ccco2)CC1=O (stereo not drawn) [compound 16] . Output LC50: 1.4
